Target: ALK [WT] (Homo sapiens)
Sequence (Q9UM73 19-1620): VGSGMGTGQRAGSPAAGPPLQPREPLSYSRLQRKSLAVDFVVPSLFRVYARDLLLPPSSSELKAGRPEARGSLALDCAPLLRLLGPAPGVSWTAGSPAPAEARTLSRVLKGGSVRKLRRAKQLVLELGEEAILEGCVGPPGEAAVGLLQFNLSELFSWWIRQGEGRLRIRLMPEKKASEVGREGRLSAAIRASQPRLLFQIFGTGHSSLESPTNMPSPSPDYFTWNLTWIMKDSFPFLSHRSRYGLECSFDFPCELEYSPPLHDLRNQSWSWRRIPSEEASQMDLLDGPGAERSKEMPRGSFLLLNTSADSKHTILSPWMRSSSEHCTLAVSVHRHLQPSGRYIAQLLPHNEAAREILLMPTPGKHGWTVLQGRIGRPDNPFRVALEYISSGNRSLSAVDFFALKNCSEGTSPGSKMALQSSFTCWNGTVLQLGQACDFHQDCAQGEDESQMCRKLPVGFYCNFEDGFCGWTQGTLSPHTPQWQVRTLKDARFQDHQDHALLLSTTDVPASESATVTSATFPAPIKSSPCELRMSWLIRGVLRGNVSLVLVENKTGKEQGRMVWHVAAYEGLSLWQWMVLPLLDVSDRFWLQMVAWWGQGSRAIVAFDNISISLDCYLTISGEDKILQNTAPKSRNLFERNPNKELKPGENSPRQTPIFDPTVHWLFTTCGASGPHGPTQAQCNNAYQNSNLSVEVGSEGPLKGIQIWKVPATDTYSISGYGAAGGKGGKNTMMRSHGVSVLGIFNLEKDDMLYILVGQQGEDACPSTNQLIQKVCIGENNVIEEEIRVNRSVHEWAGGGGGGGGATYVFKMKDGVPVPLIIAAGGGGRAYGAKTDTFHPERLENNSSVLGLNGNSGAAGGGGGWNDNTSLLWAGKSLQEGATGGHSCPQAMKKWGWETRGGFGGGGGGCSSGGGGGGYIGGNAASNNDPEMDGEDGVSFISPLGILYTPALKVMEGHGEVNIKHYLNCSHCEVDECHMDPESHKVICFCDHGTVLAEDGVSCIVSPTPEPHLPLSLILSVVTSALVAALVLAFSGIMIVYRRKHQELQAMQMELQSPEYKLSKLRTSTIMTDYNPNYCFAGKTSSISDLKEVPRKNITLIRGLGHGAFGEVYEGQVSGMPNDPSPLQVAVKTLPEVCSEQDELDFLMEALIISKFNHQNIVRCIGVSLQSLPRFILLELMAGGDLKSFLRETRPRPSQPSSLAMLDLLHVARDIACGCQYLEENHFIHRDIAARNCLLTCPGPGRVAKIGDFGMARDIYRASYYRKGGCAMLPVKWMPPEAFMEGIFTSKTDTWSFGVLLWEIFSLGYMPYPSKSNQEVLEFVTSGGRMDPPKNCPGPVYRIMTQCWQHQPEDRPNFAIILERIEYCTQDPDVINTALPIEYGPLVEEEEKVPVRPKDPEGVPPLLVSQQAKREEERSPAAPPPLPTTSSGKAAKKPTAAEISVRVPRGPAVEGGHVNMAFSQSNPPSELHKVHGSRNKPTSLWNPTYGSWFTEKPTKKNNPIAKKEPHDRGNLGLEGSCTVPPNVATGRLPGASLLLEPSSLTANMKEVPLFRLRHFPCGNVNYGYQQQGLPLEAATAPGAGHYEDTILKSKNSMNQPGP
Experiment: Kinase inhibition assay, ALK [WT]
Assay type: biochemical
# IC50 per entry

Illustrative cases are given below, each with its answer.
| Compound | IC50 |
| --- | --- |
| CP(C)(=O)c1ccccc1Nc1nc(Nc2ccc(CCN)nc2OCC(F)(F)F)ncc1Cl [Example 17] | 10 to 50 nM |
| CC(C)Oc1nc(N2CCC(N(C)C)CC2)ccc1Nc1ncc(Cl)c(Nc2ccccc2P(C)(C)=O)n1 [Example 5] | 5 to 10 nM |
| CN1CCN(c2ccc(Nc3ncc(Cl)c(Nc4ccccc4P(C)(C)=O)n3)c(OCC(F)(F)F)n2)CC1 [Example 10] | ≤ 5 nM |
| CN1CCN(C2CCN(c3ccc(Nc4ncc(Cl)c(Nc5ccccc5P(C)(C)=O)n4)c(OCC(F)(F)F)n3)CC2)CC1 [Example 12] | 5 to 10 nM |
| CC(C)Oc1nc(N2CCC(N3CCN(C)CC3)CC2)ccc1Nc1ncc(Cl)c(Nc2ccccc2P(C)(C)=O)n1 [Example 8] | 5 to 10 nM |

Query: Consider the compound shown here: CC(C)Oc1nc(N2CCN(C)CC2)ccc1Nc1ncc(Cl)c(Nc2ccccc2P(C)(C)=O)n1 [Example 6] What is its recorded IC50?
Reply: 5 to 10 nM

Query: Consider the compound shown here: COc1nc(N2CCC(N(C)C)CC2)ccc1Nc1ncc(Cl)c(Nc2ccccc2P(C)(C)=O)n1 [Example 1] What is its recorded IC50?
Reply: ≤ 5 nM

Query: Consider the compound shown here: COc1nc(N2CCN(C)CC2)ccc1Nc1ncc(Cl)c(Nc2ccccc2P(C)(C)=O)n1 [Example 2] What is its recorded IC50?
Reply: ≤ 5 nM

Query: Consider the compound shown here: CNCCc1ccc(Nc2ncc(Cl)c(Nc3ccccc3P(C)(C)=O)n2)c(OCC(F)(F)F)n1 [Example 18] What is its recorded IC50?
Reply: 10 to 50 nM

Query: Consider the compound shown here: CN(C)C1CCN(c2ccc(Nc3ncc(Cl)c(Nc4ccccc4P(C)(C)=O)n3)c(OCC(F)(F)F)n2)CC1 [Example 9] What is its recorded IC50?
Reply: ≤ 5 nM

Query: Consider the compound shown here: COc1nc(N(C)CCN(C)C)ccc1Nc1ncc(Cl)c(Nc2ccccc2P(C)(C)=O)n1 [Example 3] What is its recorded IC50?
Reply: ≤ 5 nM

---

Target: Ba/F3 [EML4-ALK] (Homo sapiens, UniProt Q9UM73)
Construct: IC50(nM) ALK (Ba/F3); other: 72 hours, CellTiter-Glo; Ba/F3 [EML4-ALK]; fused on or other part: Q9HC35 (Echinoderm microtubule-associated protein-like 4)
Sequence (Q9UM73 whole entry, change not shown, the tested form may be a part): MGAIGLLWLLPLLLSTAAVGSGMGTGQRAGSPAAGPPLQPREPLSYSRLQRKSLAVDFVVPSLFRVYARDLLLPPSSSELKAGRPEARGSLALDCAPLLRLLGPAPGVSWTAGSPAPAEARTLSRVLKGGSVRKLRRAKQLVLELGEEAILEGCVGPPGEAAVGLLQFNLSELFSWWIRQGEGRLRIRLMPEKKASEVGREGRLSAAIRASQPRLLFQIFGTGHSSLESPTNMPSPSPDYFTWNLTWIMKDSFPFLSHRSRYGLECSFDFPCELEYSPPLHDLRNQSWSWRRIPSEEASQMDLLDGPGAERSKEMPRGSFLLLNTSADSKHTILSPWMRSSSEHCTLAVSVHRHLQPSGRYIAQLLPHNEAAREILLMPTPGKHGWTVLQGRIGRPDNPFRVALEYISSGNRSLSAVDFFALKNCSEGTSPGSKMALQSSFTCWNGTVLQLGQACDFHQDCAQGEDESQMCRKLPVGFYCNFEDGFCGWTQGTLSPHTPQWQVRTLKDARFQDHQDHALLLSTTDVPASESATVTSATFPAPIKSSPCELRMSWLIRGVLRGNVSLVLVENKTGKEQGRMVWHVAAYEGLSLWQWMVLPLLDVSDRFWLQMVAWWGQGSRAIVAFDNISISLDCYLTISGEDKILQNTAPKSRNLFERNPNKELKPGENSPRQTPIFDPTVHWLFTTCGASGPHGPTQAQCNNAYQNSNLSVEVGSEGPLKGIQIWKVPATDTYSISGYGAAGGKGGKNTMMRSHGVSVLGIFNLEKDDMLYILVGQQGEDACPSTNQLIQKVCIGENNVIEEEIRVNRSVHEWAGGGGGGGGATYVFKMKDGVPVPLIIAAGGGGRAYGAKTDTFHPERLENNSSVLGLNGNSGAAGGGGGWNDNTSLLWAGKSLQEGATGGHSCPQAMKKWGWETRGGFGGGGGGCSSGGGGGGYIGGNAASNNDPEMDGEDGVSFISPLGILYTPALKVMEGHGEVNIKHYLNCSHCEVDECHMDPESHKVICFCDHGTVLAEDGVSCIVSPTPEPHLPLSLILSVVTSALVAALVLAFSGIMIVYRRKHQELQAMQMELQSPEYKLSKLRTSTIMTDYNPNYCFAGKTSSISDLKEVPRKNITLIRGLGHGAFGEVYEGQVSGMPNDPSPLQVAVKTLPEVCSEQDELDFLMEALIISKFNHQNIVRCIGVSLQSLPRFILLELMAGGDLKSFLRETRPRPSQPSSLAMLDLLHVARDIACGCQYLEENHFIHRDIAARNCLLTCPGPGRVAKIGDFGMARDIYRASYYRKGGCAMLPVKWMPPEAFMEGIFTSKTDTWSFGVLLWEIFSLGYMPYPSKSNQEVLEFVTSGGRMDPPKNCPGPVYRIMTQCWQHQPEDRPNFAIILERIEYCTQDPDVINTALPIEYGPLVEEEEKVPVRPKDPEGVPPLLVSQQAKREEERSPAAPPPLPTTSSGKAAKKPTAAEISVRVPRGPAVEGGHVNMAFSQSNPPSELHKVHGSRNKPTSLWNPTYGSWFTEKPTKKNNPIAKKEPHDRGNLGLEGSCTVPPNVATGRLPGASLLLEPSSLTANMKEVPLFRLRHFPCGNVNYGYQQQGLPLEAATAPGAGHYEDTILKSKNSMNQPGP
Experiment: Cytotoxicity test (CellTiter-Glo), Ba/F3 [EML4-ALK]
Type: cell-based
Conditions: 72 hours, CellTiter-Glo; read-out: IC50(nM) ALK (Ba/F3)
# GI50 per entry

Illustrative cases are given below, each with its answer.
| Compound Structure | Assayed Target | GI50 |
| --- | --- | --- |
| COc1nc(N2CCC(N3CCN(C)CC3)CC2)ccc1Nc1nc(Nc2ccccc2P(C)(C)=O)c2cc[nH]c2n1 | Ba/F3 [EML4-ALK] (Homo sapiens, UniProt Q9UM73) | ≤ 50 nM |
| CN1CCN(c2ccc(Nc3ncc(Cl)c(Nc4ccccc4P(C)(C)=O)n3)c(OCC(F)(F)F)n2)CC1 | Ba/F3 [EML4-ALK] (Homo sapiens, UniProt Q9UM73) | ≤ 50 nM |
| CP(C)(=O)c1ccccc1Nc1nc(Nc2ccc(CCN)nc2OCC(F)(F)F)ncc1Cl | Ba/F3 [EML4-ALK] (Homo sapiens, UniProt Q9UM73) | 100 to 400 nM |
| CC(C)Oc1nc(N2CCC(N3CCN(C)CC3)CC2)ccc1Nc1ncc(Cl)c(Nc2ccccc2P(C)(C)=O)n1 | Ba/F3 [EML4-ALK] (Homo sapiens, UniProt Q9UM73) | ≤ 50 nM |
| COc1nc(N2CCN(C)CC2)ccc1Nc1ncc(Cl)c(Nc2ccccc2P(C)(C)=O)n1 | Ba/F3 [EML4-ALK] (Homo sapiens, UniProt Q9UM73) | ≤ 50 nM |

Query: Lookup: GI50 / Ba/F3 [EML4-ALK] (Homo sapiens, UniProt Q9UM73) / `CC(C)Oc1nc(N2CCC(N(C)C)CC2)ccc1Nc1ncc(Cl)c(Nc2ccccc2P(C)(C)=O)n1`
Reply: ≤ 50 nM

Query: Lookup: GI50 / Ba/F3 [EML4-ALK] (Homo sapiens, UniProt Q9UM73) / `COc1nc(N2CCN(C)CC2)ccc1Nc1nc(Nc2ccccc2P(C)(C)=O)c2cc[nH]c2n1`
Reply: ≤ 50 nM

Query: Lookup: GI50 / Ba/F3 [EML4-ALK] (Homo sapiens, UniProt Q9UM73) / `COc1nc(N2CCC(N(C)C)CC2)ccc1Nc1ncc(Cl)c(Nc2ccccc2P(C)(C)=O)n1`
Reply: ≤ 50 nM

Query: Lookup: GI50 / Ba/F3 [EML4-ALK] (Homo sapiens, UniProt Q9UM73) / `CC(C)Oc1nc(N2CCN(C)CC2)ccc1Nc1ncc(Cl)c(Nc2ccccc2P(C)(C)=O)n1`
Reply: ≤ 50 nM

Query: Lookup: GI50 / Ba/F3 [EML4-ALK] (Homo sapiens, UniProt Q9UM73) / `CN1CCN(C2CCN(c3ccc(Nc4ncc(Cl)c(Nc5ccccc5P(C)(C)=O)n4)c(OCC(F)(F)F)n3)CC2)CC1`
Reply: ≤ 50 nM

Query: Lookup: GI50 / Ba/F3 [EML4-ALK] (Homo sapiens, UniProt Q9UM73) / `COc1nc(N2CCC(N(C)C)CC2)ccc1Nc1nc(Nc2ccccc2P(C)(C)=O)c2cc[nH]c2n1`
Reply: ≤ 50 nM

Query: Lookup: GI50 / Ba/F3 [EML4-ALK] (Homo sapiens, UniProt Q9UM73) / `CN(C)C1CCN(c2ccc(Nc3ncc(Cl)c(Nc4ccccc4P(C)(C)=O)n3)c(OCC(F)(F)F)n2)CC1`
Reply: ≤ 50 nM

Query: Lookup: GI50 / Ba/F3 [EML4-ALK] (Homo sapiens, UniProt Q9UM73) / `CN(C)CCN(C)c1ccc(Nc2ncc(Cl)c(Nc3ccccc3P(C)(C)=O)n2)c(OCC(F)(F)F)n1`
Reply: 50 to 100 nM

Query: Lookup: GI50 / Ba/F3 [EML4-ALK] (Homo sapiens, UniProt Q9UM73) / `CNCCc1ccc(Nc2ncc(Cl)c(Nc3ccccc3P(C)(C)=O)n2)c(OCC(F)(F)F)n1`
Reply: 100 to 400 nM

Query: Lookup: GI50 / Ba/F3 [EML4-ALK] (Homo sapiens, UniProt Q9UM73) / `CN(C)CCc1ccc(Nc2ncc(Cl)c(Nc3ccccc3P(C)(C)=O)n2)c(OCC(F)(F)F)n1`
Reply: 50 to 100 nM

Query: Lookup: GI50 / Ba/F3 [EML4-ALK] (Homo sapiens, UniProt Q9UM73) / `COc1nc(N2CCC(N3CCN(C)CC3)CC2)ccc1Nc1ncc(Cl)c(Nc2ccccc2P(C)(C)=O)n1`
Reply: ≤ 50 nM

Query: Lookup: GI50 / Ba/F3 [EML4-ALK] (Homo sapiens, UniProt Q9UM73) / `COc1nc(N(C)CCN(C)C)ccc1Nc1nc(Nc2ccccc2P(C)(C)=O)c2cc[nH]c2n1`
Reply: ≤ 50 nM

Query: Lookup: GI50 / Ba/F3 [EML4-ALK] (Homo sapiens, UniProt Q9UM73) / `COc1nc(N(C)CCN(C)C)ccc1Nc1ncc(Cl)c(Nc2ccccc2P(C)(C)=O)n1`
Reply: ≤ 50 nM

Query: Lookup: GI50 / Ba/F3 [EML4-ALK] (Homo sapiens, UniProt Q9UM73) / `CC(C)Oc1nc(N(C)CCN(C)C)ccc1Nc1ncc(Cl)c(Nc2ccccc2P(C)(C)=O)n1`
Reply: ≤ 50 nM

Sourced from patent US20210009613A1
